Measured pIC50, listed per entry for reference.
Target: PI3Kα H1047R in T47D cells (Homo sapiens, UniProt P42336, H1047R)
Construct: endogenous in cells; host or cells: T47D
Assay: PI3Kα cellular assay: T47D pAKT S473 HTRF
Format: cell-based
Conditions: T47D cells (H1047R), serum starved, 1 hr compound, 20 ng/ml EGF 10 min
pIC50: −log10 of the molar value.

Compound | pIC50
Cc1cc(C(C)Nc2ccccc2C(=O)O)c2nc(N3Cc4ccccc4C3)[nH]c(=O)c2c1 (stereo not shown) | ≤ 5.70
Cc1cc(C(C)Nc2ccccc2C(=O)O)c2cc(-c3ccc4c(c3)c(C)nn4C)n(C)c(=O)c2c1 (stereo not shown) | > 6.12

Hello, I am looking for reported pIC50 with PI3Kα H1047R in T47D cells (Homo sapiens, UniProt P42336, H1047R) for Cc1cc([C@H](C)Nc2ccccc2C(=O)O)c2nc(N3CCC(C)(C)CC3)nc(N)c2c1 . Could you help?
≤ 5.70

What about Cc1cc([C@H](C)Nc2ccccc2C(=O)O)c2cc(N3Cc4ccccc4C3)ncc2c1 ?
≤ 5.70

What about Cc1cc([C@@H](C)Nc2ccccc2C(=O)O)c2nc(-c3ccc(F)cc3)n(C)c(=O)c2c1 (single isomer, unassigned) ?
> 6.12

What about Cc1cc([C@@H](C)Nc2ccccc2C(=O)O)c2nc(N3Cc4ccccc4C3)ncc2c1 ?
≤ 5.70

What about Cc1cc([C@@H](C)Nc2ccccc2C(=O)O)c2nc(-c3ccc(C#N)nc3)n(C)c(=O)c2c1 ?
> 6.12

----------
Target: PI3Kα H1047R in T47D cells (Homo sapiens, UniProt P42336, H1047R)
Construct: endogenous in cells; host or cells: T47D
Assay: PI3Kα cellular assay: T47D pAKT S473 HTRF
Assay type: cell-based
Conditions: T47D (H1047R) versus SKBR3 (WT) cells
Experimental Readout: T47D pAKT S473 HTRF IC50 (H1047R): T47D (H1047R) selectivity over SKBR3 (WT)

Compound | Recorded Result
Cc1cc(C(C)Nc2ccccc2C(=O)O)c2nc(N3CCC(C)(C)CC3)nc(C(N)=O)c2c1 (centres unmarked) [Compound 23] | C (C denotes ≤5-fold)
Cc1cc([C@@H](C)Nc2ccccc2C(=O)O)c2cc(-c3ccnc(C4CC4)c3)n(C)c(=O)c2c1 [Compound 79] | C (C denotes ≤5-fold)
Cc1cc(C(C)Nc2ccccc2C(=O)O)c2nc(-c3ccc4c(c3)c(C)cn4C)n(C)c(=O)c2c1 (centres unmarked) [Compound 133] | A (A denotes >20-fold)
Cc1cc(C(C)Nc2ccccc2C(=O)O)c2nc(-c3ccc(C4CC4)nc3)n(C)c(=O)c2c1 (centres unmarked) [Compound 136] | A (A denotes >20-fold)
Cc1cc(C(C)Nc2ccccc2C(=O)O)c2nc(N3CCC(C)(C)CC3)nc(C#N)c2c1 (centres unmarked) [Compound 26] | C (C denotes ≤5-fold)

Using the record for Cc1cc(C(C)Nc2ccccc2C(=O)O)c2cc(OC3CCOCC3)ncc2c1 (centres unmarked) [Compound 74] , report its T47D pAKT S473 HTRF IC50 (H1047R): T47D (H1047R) selectivity over SKBR3 (WT).
A (A denotes >20-fold)

What about Cc1cc(C(C)Nc2ccccc2C(=O)O)c2nc(N3CCC(C)(C)CC3)nc(N)c2c1 (centres unmarked) [Compound 3] ?
C (C denotes ≤5-fold)

----------
Target: PI3Kα H1047R in T47D cells (Homo sapiens, UniProt P42336, H1047R)
Construct: endogenous in cells
Test: PI3Kα cellular assay: T47D pAKT S473 HTRF
Conditions: T47D cells (H1047R), serum starved, 1 hr compound, 20 ng/ml EGF 10 min
pIC50: −log10 of the molar value.
Measured pIC50, listed per entry for reference.

Using the record for Cc1cc([C@H](C)Nc2ccccc2C(=O)O)c2cc(N3CCOCC3)ncc2c1 , report its pIC50.
≤ 5.70

----------
Biological target: PI3Kα H1047R in T47D cells (Homo sapiens, UniProt P42336, H1047R)
Construct: endogenous in cells
Assay: PI3Kα cellular assay: T47D pAKT S473 HTRF
Details: T47D cells (H1047R), serum starved, 1 hr compound, 20 ng/ml EGF 10 min
pIC50: −log10 of the molar value.
Experimental Readout: pIC50

# annotated cases, reported pIC50 shown
Compound | Assayed System | pIC50
Cc1cc(C(C)Nc2ccccc2C(=O)O)c2nc(N3CCC(C)(C)CC3)nc(N)c2c1 (stereo not shown) | PI3Kα H1047R in T47D cells (Homo sapiens, UniProt P42336, H1047R) | ≤ 5.70
Cc1cc([C@H](C)Nc2ccccc2C(=O)O)c2cc(-c3ccc4c(c3)c(C)nn4C)n(C)c(=O)c2c1 | PI3Kα H1047R in T47D cells (Homo sapiens, UniProt P42336, H1047R) | ≤ 5.70

Using the record for Cc1cc(C(C)Nc2ccccc2C(=O)O)c2cc(-c3ccnc(C4CC4)c3)nc(C(N)=O)c2c1 (stereo not shown) , report its pIC50.
> 6.12

What about Cc1cc(C(C)Nc2ccccc2C(=O)O)c2nc(-c3ccc4c(c3)c(C)nn4C)n(C)c(=O)c2c1 (stereo not shown) ?
> 6.12

What about Cc1cc([C@@H](C)Nc2ccccc2C(=O)O)c2nc(-c3ccc4c(c3)c(C)nn4C)n(C)c(=O)c2c1 ?
≤ 5.70

What about Cc1cc(C(C)Nc2ccccc2C(=O)O)c2cc(N3Cc4ccccc4C3)nc(C#N)c2c1 (stereo not shown) ?
≤ 5.70

What about Cc1cc(C(C)Nc2ccccc2C(=O)O)c2cc(OCc3ccccc3)nc(C(N)=O)c2c1 (stereo not shown) ?
> 6.12

----------
Measured IC50, listed per entry for reference.
Target: PI3K H1047R (Homo sapiens, UniProt P42336, H1047R)
Sequence (P42336 whole entry H1047R): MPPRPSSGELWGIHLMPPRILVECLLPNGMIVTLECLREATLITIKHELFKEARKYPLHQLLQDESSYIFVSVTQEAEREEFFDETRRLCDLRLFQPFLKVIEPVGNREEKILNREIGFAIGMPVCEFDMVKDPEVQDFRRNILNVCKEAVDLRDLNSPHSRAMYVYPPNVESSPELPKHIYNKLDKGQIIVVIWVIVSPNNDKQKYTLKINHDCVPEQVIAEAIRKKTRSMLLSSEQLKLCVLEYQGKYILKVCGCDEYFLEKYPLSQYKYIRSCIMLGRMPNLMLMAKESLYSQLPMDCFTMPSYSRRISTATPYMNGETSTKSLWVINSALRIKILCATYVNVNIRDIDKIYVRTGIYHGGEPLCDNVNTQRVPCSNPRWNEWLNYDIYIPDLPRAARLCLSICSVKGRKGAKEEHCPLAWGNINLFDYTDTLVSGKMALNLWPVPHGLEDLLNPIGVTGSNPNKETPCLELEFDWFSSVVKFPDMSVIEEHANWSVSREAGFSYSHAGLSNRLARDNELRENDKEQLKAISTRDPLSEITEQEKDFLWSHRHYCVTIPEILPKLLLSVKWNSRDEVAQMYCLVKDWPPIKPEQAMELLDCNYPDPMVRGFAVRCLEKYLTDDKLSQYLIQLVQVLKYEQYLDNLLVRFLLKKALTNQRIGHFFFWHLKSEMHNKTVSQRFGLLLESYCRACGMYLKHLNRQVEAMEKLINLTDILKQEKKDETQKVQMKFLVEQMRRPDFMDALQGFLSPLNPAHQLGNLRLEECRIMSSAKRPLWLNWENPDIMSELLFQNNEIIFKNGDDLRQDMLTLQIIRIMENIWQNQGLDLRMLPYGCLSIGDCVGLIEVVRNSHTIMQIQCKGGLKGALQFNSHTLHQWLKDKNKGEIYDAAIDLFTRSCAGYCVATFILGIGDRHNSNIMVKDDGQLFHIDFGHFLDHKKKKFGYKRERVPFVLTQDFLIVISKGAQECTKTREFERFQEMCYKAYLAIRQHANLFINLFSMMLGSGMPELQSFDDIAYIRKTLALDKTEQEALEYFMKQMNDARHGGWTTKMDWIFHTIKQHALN
Sequence (P27986 whole entry partner): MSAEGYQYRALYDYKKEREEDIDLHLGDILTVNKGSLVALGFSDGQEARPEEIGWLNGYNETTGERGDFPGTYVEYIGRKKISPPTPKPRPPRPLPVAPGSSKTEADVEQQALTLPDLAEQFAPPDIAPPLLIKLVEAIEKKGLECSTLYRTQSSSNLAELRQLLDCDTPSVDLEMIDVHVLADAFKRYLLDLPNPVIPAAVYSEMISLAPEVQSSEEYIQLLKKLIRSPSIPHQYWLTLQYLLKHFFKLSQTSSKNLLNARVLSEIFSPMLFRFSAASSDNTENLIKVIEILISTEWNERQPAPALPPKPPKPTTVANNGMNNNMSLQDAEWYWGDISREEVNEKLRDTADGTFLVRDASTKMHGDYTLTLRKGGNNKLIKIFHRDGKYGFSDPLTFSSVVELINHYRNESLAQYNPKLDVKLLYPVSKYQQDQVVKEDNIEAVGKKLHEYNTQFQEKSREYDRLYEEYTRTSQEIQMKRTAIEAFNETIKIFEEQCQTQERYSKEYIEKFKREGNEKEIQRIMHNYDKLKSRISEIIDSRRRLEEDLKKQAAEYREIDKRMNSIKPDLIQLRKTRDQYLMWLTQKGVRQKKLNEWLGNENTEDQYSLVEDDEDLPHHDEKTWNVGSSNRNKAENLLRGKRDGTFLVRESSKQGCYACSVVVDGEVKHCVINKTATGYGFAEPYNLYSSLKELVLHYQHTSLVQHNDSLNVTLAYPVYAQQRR
Assay: PI3K H1047R ADP-Glo (PI/PS)
Settings: PI/PS substrate

# annotated cases, reported IC50 shown
Compound | Assayed System | Recorded Result
Cc1cc([C@H](C)Nc2ccccc2C(=O)O)c2cc(-c3ccc4c(c3)c(C)nn4C)n(C)c(=O)c2c1 [Compound 85] | PI3K H1047R (Homo sapiens, UniProt P42336, H1047R) | 1 to 10 µM
Cc1cc(C(C)Nc2ccccc2C(=O)O)c2nc(N3CCC(C)(C)CC3)ncc2c1 (centres unmarked) [Compound 10] | PI3K H1047R (Homo sapiens, UniProt P42336, H1047R) | < 1 µM
Cc1cc([C@@H](C)Nc2ccccc2C(=O)O)c2cc(N3Cc4ccccc4C3)ncc2c1 [Compound 81] | PI3K H1047R (Homo sapiens, UniProt P42336, H1047R) | < 1 µM

Using the record for Cc1cc(C(C)Nc2ccccc2C(=O)O)c2nc(N3CCC(C)(C)CC3)nc(C#N)c2c1 (centres unmarked) [Compound 26] , report its IC50.
≥ 10 µM

What about Cc1cc([C@H](C)Nc2ccccc2C(=O)O)c2nc(-c3ccc4c(c3)c(C)nn4C)n(C)c(=O)c2c1 (single isomer, unassigned) [Compound 33] ?
< 1 µM

What about Cc1cc([C@H](C)Nc2ccccc2C(=O)O)c2cc(-c3ccc4c(c3)c(C)nn4C)ncc2c1 [Compound 83] ?
≥ 10 µM

What about Cc1cc([C@H](C)Nc2ccccc2C(=O)O)c2cc(N3Cc4ccccc4C3)ncc2c1 [Compound 80] ?
≥ 10 µM

What about Cc1cc([C@@H](C)Nc2ccccc2C(=O)O)c2cc(-c3ccnc(C4CC4)c3)n(C)c(=O)c2c1 [Compound 79] ?
≥ 10 µM

What about Cc1cc([C@@H](C)Nc2ccccc2C(=O)O)c2cc(N3CCOCC3)ncc2c1 [Compound 57] ?
< 1 µM

What about Cc1cc([C@H](C)Nc2ccccc2C(=O)O)c2nc(N3CCC(C)(C)CC3)nc(C#N)c2c1 [Compound 60] ?
≥ 10 µM

----------
Biological target: PI3Kα H1047R in T47D cells (Homo sapiens, UniProt P42336, H1047R)
Construct: endogenous in cells
Assay: PI3Kα cellular assay: T47D pAKT S473 HTRF
Details: T47D cells (H1047R), serum starved, 1 hr compound, 20 ng/ml EGF 10 min
pIC50: −log10 of the molar value.
Experimental Readout: pIC50

# annotated cases, reported pIC50 shown
Compound | pIC50
Cc1cc(C(C)Nc2ccccc2C(=O)O)c2nc(N3CCC(C)(C)CC3)ncc2c1 (stereo not drawn) | > 6.12
Cc1cc([C@@H](C)Nc2ccccc2C(=O)O)c2nc(-c3ccc4c(c3)c(C)cn4C)n(C)c(=O)c2c1 | > 6.12
Cc1cc([C@H](C)Nc2ccccc2C(=O)O)c2nc(-c3ccc4c(c3)c(C)nn4C)n(C)c(=O)c2c1 (single isomer, unassigned) | > 6.12
Cc1cc([C@H](C)Nc2ccccc2C(=O)O)c2cc(-c3ccc4c(c3)c(C)nn4C)ncc2c1 | ≤ 5.70
Cc1cc(C(C)Nc2ccccc2C(=O)O)c2nc(-c3ccc(F)cc3)n(C)c(=O)c2c1 (stereo not drawn) | > 6.12
Cc1cc([C@H](C)Nc2ccccc2C(=O)O)c2[nH]c(N3CCOCC3)nc(=O)c2c1 | > 6.12
Cc1cc([C@H](C)Nc2ccccc2C(=O)O)c2cc(-c3ccnc(C4CC4)c3)n(C)c(=O)c2c1 | > 6.12
Cc1cc([C@@H](C)Nc2ccccc2C(=O)O)c2nc(-c3ccc(C)nc3)n(C)c(=O)c2c1 | > 6.12

Using the record for Cc1cc([C@@H](C)Nc2ccccc2C(=O)O)c2cc(N3Cc4ccccc4C3)ncc2c1 , report its pIC50.
> 6.12

What about Cc1cc(C(C)Nc2ccccc2C(=O)O)c2nc(N3CCC(C)(C)CC3)nc(C(N)=O)c2c1 (stereo not drawn) ?
≤ 5.70
